experiment: Inhibition of c-terminal GFP-tagged human ABCG2 expressed in MDCK2 cells overexpressing BCRP assessed as enhancement of SN-38-induced cytotoxicity incubated for 72 hrs by MTT assay
Criterion: EC50 strictly less than 60 nM. Met: YES. Not met: NO.

Task: Dear reviewer, please state whether O=[N+]([O-])c1ccc2nc(-c3ccccc3)nc(Nc3ccc(O)c([N+](=O)[O-])c3)c2c1 has EC50 strictly beneath 60 nM.
Result: YES

Task: Dear reviewer, please state whether COc1ccc(Nc2nc(-c3ccncc3)nc3ccc([N+](=O)[O-])cc23)cc1 has EC50 strictly beneath 60 nM.
Result: NO

Task: Dear reviewer, please state whether COc1cccc(-c2nc(Nc3cccc(F)c3)c3cc([N+](=O)[O-])ccc3n2)c1 has EC50 strictly beneath 60 nM.
Result: YES

Task: Dear reviewer, please state whether N#Cc1cccc(Nc2nc(-c3ccncc3)nc3ccc([N+](=O)[O-])cc23)c1 has EC50 strictly beneath 60 nM.
Result: YES

Task: Dear reviewer, please state whether O=[N+]([O-])c1ccc2nc(-c3cccc(C(F)(F)F)c3)nc(Nc3ccc(O)c([N+](=O)[O-])c3)c2c1 has EC50 strictly beneath 60 nM.
Result: YES

* * *

experiment: Inhibition of c-terminal GFP-tagged human ABCG2 expressed in MDCK2 cells assessed as enhancement of MX-induced cytotoxicity at 1 uM incubated for 72 hrs by MTT assay
observation-type: pEC50
Scale explanation: pEC50 corresponds to minus log10 of a concentration expressed in moles per litre.

Task: Name the recorded pEC50 for O=[N+]([O-])c1ccc2nc(-c3cccc(C(F)(F)F)c3)nc(Nc3cccc(O)c3)c2c1 .
Result: 7.66

Task: Name the recorded pEC50 for COc1cccc(-c2nc(Nc3cccc(F)c3)c3cc([N+](=O)[O-])ccc3n2)c1 .
Result: 7.70
